Assay: Association constant evaluated towards Hematin mu-oxo dimer
Recorded Endpoint: Ka (M⁻¹)

Field: example entries. Status: answers known.
| Compound | Recorded Endpoint | Unit Info | Experimental Value |
| --- | --- | --- | --- |
| CCN(CC)CCCC(C)Nc1ccnc2cc(Br)ccc12 (configuration not stated) | Ka | M⁻¹ | 120000 |
| CCN(CC)CCCC(C)Nc1ccnc2ccccc12 (configuration not stated) | Ka | M⁻¹ | 85000 |
| CCC(CC)CCCC(C)Nc1ccnc2cc(Cl)ccc12 (configuration not stated) | Ka | M⁻¹ | 79000 |
| CCN(CC)CCCC(C)Nc1c(C)cnc2cc(Cl)ccc12 (configuration not stated) | Ka | M⁻¹ | 150000 |

[1] CCN(CC)CCCC(C)Nc1cc(C)nc2cc(Cl)ccc12 (configuration not stated)
[2] CCN(CC)CCCC(C)Nc1ccnc2cc(N)ccc12 (configuration not stated)
Ask: Which of these two has the smaller recorded Ka: 1 or 2 ? I would appreciate it if you answered with the label of your choice.
Reply: 1

[I] CCNCCCC(C)Nc1ccnc2cc(Cl)ccc12 (configuration not stated)
[II] CCN(CC)CCCC(C)Nc1ccnc2cc([N+](=O)[O-])ccc12 (configuration not stated)
Ask: Lab note: check whether I or II has the lower measured Ka. Bench note: the answer is the label of the chosen record.
Reply: I

[1] CCN(CC)CCCCC(C)Nc1ccnc2cc(Cl)ccc12 (configuration not stated)
[2] Nc1ccnc2cc(Cl)ccc12
[3] CCN(CC)CC(C)Nc1ccnc2cc(Cl)ccc12 (configuration not stated)
Ask: Please order the records by their reported Ka, lowest number first. Please respond by ranking the labels in the order requested.
Reply: 2, 1, 3

----------
Target: hematin (cell-free polymerization, no protein)
Assay: Inhibition of hematin polymerization
Recorded Endpoint: IC50 (µM)

Solved entries (count: 2):
| Compound | System Under Test | Unit Info | IC50 |
| --- | --- | --- | --- |
| CCN(CC)CCCC(C)Nc1c(C)cnc2cc(Cl)ccc12 (configuration not stated) | hematin (cell-free polymerization, no protein) | µM | 15 |
| CCN(CC)CC(C)Nc1ccnc2cc(Cl)ccc12 (configuration not stated) | hematin (cell-free polymerization, no protein) | µM | 18 |

[a] CCNc1ccnc2cc(Cl)ccc12
[b] CCNCCCC(C)Nc1ccnc2cc(Cl)ccc12 (configuration not stated)
Ask: Please choose the item with the lower IC50 value from this pair: a and b When you have decided, please share the label of that item.
Reply: b

----------
Test system: Plasmodium falciparum
Test: Parasite growth in chloroquine-sensitive Plasmodium falciparum NF54
Format: functional, organism-based
As shown below, each of these compounds has a reported IC50 value.
Just the number in nM, nothing appended.

The cases that follow already have their IC50 on record.
| Compound | Experimental Value |
| --- | --- |
| CCN(CC)CCCC(C)Nc1c(C)cnc2cc(Cl)ccc12 (stereo not drawn) | 20 |
| CCN(CC)CCCCC(C)Nc1ccnc2cc(Cl)ccc12 (stereo not drawn) | 24 |
| CCN(CC)CC(C)Nc1ccnc2cc(Cl)ccc12 (stereo not drawn) | 41 |
| CCNc1ccnc2cc(Cl)ccc12 | 820 |
| CCN(CC)CCCC(C)Nc1ccnc2cc(Br)ccc12 (stereo not drawn) | 93 |

Ask: IC50 lookup needed for Nc1ccnc2cc(Cl)ccc12 , thanks.
Reply: 1700

Ask: Which IC50 value is on record for CCC(CC)CCCC(C)Nc1ccnc2cc(Cl)ccc12 (stereo not drawn) ?
Reply: 54

Ask: Query (compound): CCNCCCC(C)Nc1ccnc2cc(Cl)ccc12 (stereo not drawn) [DESETHYLCHLOROQUINE] ; field requested: IC50
Reply: 45

Ask: Consider the compound shown here: CCN(CC)CCCC(C)Nc1ccnc2ccc(Cl)cc12 (stereo not drawn) What is its recorded IC50?
Reply: 170

Ask: Quick check: IC50 of CCN(CC)CCCC(C)Nc1ccnc2cc([N+](=O)[O-])ccc12 (stereo not drawn) ?
Reply: 15

----------
# pIC50 values compiled below
Test system: Plasmodium falciparum
Assay: Parasite growth in chloroquine-resistant Plasmodium falciparum K1
# log scale: pIC50 equals minus log10 of the concentration in mol/L

| Molecule | pIC50 |
| --- | --- |
| CCN(CC)CCCC(C)Nc1c(C)cnc2cc(Cl)ccc12 (stereo not drawn) | 7.23 |
| CCN(CC)CCCC(C)Nc1ccnc2cc([N+](=O)[O-])ccc12 (stereo not drawn) | 7.17 |
| CCN(CC)CC(C)Nc1ccnc2cc(Cl)ccc12 (stereo not drawn) | 7.03 |

Ask: Looking for the measured pIC50 of CCN(CC)CCCCC(C)Nc1ccnc2cc(Cl)ccc12 (stereo not drawn) , can you help?
Reply: 6.38

Ask: Which pIC50 reading was recorded for the molecule CCN(CC)CCCC(C)Nc1ccnc2ccc(Cl)cc12 (stereo not drawn) ?
Reply: 5.31

Ask: Entry CCNc1ccnc2cc(Cl)ccc12 : reported pIC50 = ?
Reply: 6.06

Ask: What does the record list as pIC50 for CCN(CC)CCCC(C)Nc1ccnc2cc(Br)ccc12 (stereo not drawn) ?
Reply: 5.85

Ask: Entry under review: CCC(CC)CCCC(C)Nc1ccnc2cc(Cl)ccc12 (stereo not drawn) . Reported pIC50?
Reply: 6.70

Ask: GET /values?readout=pIC50&item= Nc1ccnc2cc(Cl)ccc12
Reply: 6.00

Ask: // query pIC50 value for entry CCN(CC)CCCC(C)Nc1ccnc2cc(N)ccc12 (stereo not drawn)
Reply: 5.37

Ask: // returns reported pIC50 for input CCNCCCC(C)Nc1ccnc2cc(Cl)ccc12 (stereo not drawn)
Reply: 5.89

Ask: Entry CCN(CC)CCCC(C)Nc1ccnc2ccccc12 (stereo not drawn) : reported pIC50 = ?
Reply: 5.10

Ask: // lookup pIC50 for CCN(CC)CCCC(C)Nc1cc(C)nc2cc(Cl)ccc12 (stereo not drawn)
Reply: 5.96

----------
Catalogue of pIC50 readings, one per entry.
Target: hematin (cell-free polymerization, no protein)
Test: Inhibition of hematin polymerization
pIC50: −log10 of the molar value.

| Compound | Recorded Endpoint | Experimental Value |
| --- | --- | --- |
| CCN(CC)CCCC(C)Nc1ccnc2cc(N)ccc12 (stereo not drawn) | pIC50 | < 2.60 |
| CCN(CC)CCCC(C)Nc1ccnc2ccc(Cl)cc12 (stereo not drawn) | pIC50 | < 2.60 |

Now for the compound whose pIC50 we want.
Ask: Entry CCN(CC)CCCC(C)Nc1ccnc2ccccc12 (stereo not drawn) : reported pIC50 = ?
Reply: < 2.60

----------
IC50 by entry:
System: Plasmodium falciparum
Assay: Parasite growth in chloroquine-sensitive Plasmodium falciparum NF54
Format: functional, organism-based
Please give a number only; it is taken to be in nM.

| Compound | Experimental Value |
| --- | --- |
| CCN(CC)CCCC(C)Nc1ccnc2ccccc12 (stereo not drawn) | 350 |
| CCN(CC)CCCC(C)Nc1cc(C)nc2cc(Cl)ccc12 (stereo not drawn) | 150 |

From here, focus on the item given below.
Ask: Name the recorded IC50 for CCN(CC)CCCC(C)Nc1ccnc2cc(N)ccc12 (stereo not drawn) .
Reply: 2600

Where do the numbers come from? From ChEMBL document CHEMBL1132467.
